All values here come from patent US20190367619A1.

tested.on: T1, cynomolgus galectin-10-His, WGS isoform (cynomolgus)
T1 construct: also called cynoGal10-WGS; not shown: His tag
T1 chain: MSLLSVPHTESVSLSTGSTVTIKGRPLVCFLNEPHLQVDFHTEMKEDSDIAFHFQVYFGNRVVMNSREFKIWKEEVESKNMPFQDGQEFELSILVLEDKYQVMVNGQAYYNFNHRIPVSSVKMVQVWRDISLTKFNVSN
assay.protocol: SPR Biacore T3000, mouse IgG1 captured
quantity.name: pKd
Please report pKd as the negative decimal logarithm of the molar concentration, giving only the number.

Q) State, in one line, measured pKd of 8H11 mouse IgG1 (antibody, V domains shown, VH and VL cloned in frame with mouse IgG1 constant domains; also called 8H11 mIgG1) VH: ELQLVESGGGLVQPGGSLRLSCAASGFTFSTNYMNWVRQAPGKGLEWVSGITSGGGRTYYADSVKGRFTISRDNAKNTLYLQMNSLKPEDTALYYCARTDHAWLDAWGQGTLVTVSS VL: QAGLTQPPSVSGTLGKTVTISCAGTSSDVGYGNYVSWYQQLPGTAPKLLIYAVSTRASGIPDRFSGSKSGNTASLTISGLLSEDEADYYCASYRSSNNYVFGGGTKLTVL
A) 8.36
